Data origin: patent US8716226B2

- tested_target: αvβ6 (Homo sapiens, UniProt P06756+P18564)
- Construct: HT-29 cells (American Type Culture Collection, Manassas, Va.), which naturally express αvβ6; endogenous in cells
- Sequence (P06756 31-889 limits assumed): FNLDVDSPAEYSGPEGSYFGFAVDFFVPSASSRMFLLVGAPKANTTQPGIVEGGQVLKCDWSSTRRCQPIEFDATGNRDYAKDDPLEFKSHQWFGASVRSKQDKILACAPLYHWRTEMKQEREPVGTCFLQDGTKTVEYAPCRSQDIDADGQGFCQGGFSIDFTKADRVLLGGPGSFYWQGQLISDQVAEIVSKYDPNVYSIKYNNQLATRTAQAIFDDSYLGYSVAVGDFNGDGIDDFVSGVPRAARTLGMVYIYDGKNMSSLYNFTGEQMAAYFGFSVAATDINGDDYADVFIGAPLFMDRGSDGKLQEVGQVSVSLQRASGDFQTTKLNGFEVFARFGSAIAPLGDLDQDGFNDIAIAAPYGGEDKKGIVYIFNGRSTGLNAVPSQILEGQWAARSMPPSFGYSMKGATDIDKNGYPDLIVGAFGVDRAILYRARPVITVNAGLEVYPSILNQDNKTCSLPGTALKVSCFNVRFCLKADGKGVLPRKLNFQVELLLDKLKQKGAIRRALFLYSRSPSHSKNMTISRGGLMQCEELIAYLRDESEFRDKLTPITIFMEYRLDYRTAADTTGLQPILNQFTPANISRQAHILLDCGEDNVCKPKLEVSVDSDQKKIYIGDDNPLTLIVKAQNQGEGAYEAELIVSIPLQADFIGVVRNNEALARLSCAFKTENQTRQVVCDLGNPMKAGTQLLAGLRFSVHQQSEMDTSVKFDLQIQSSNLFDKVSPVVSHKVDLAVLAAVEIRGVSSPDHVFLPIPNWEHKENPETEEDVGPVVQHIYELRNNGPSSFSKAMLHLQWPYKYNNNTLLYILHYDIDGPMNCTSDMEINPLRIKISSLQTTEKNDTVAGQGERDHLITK
- Sequence (P06756 891-1048 partner limits assumed): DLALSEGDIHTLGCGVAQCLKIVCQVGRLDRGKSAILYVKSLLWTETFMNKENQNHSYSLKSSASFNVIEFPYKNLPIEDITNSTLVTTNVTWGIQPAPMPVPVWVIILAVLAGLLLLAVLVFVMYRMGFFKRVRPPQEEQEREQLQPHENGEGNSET
- Sequence (P18564 22-788): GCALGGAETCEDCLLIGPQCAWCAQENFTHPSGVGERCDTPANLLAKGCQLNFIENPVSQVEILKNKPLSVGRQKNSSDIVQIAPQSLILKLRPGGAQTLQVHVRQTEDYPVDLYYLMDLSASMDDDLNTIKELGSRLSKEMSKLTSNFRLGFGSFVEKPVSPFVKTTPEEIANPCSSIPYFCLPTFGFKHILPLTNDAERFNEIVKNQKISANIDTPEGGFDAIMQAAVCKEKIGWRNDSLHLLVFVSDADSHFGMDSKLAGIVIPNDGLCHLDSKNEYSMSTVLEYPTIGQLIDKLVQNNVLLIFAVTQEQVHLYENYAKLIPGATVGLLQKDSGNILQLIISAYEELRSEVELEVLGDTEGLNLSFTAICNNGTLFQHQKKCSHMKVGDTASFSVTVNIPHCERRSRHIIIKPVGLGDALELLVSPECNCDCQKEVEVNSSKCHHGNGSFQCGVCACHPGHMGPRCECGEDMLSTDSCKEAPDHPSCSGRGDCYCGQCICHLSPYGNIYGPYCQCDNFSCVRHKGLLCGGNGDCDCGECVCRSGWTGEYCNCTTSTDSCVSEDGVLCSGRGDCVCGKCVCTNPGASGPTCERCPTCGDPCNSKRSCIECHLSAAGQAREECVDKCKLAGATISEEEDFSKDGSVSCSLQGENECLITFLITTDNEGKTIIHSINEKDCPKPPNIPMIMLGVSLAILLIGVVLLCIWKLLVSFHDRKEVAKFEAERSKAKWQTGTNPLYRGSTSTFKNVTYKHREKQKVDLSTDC
- test_details: HT-29 cell adhesion assay for αvβ6 function
- reported_conditions: HT-29 cells, adhesion to human LAP
endpoint_label: pIC50
Value format note: pIC50 is -log10 of concentration (mol/L); just state the number.

pIC50 on αvβ6 (Homo sapiens, UniProt P06756+P18564) for CC(C)(C)c1cc(Br)cc([C@H](CC(=O)O)NC(=O)CNC(=O)c2cc(O)cc(NC3=NCC(O)CN3)c2)c1 (stereo partly shown) is 8.82
